# System: Acinetobacter baumannii 1104008
# Measurement Description: microbe, parasite or virus in culture
# Type: cell-based
# Condition: Table S11; LB broth, 37 °C, 16 h, n = 2
Square brackets hold non-standard residues; d marks the D form. Peptide text beside a SMILES is read from it. * marks the point of attachment. Myristoyl = CCCCCCCCCCCCCC(=O)*; dOrn = NCCC[C@@H](N)C(=O)O; Orn = NCCC[C@H](N)C(=O)O
Result Type: MIC Acinetobacter baumannii 1104008

Form: compound = CCCCCCCCCCCCCC(=O)N[C@@H](CCCN)C(=O)N[C@H](Cc1ccc(O)cc1)C(=O)N[C@@H](C(=O)N[C@@H](C(=O)N[C@H](CCCN)C(=O)N[C@@H](CCCN)C(=O)N[C@@H](C(=O)N[C@H](C(=O)N[C@@H](CC(C)C)C(=O)N[C@H](CCCN)C(=O)N[C@H](C(=O)N[C@@H](C)C(=O)O)[C@@H](C)O)[C@@H](C)CC)C(C)C)[C@H](C)O)C(C)C [synAQU6-L] (Myristoyl-[Orn][dY][dV][dT][dOrn][Orn][dV]IL[dOrn]TA-OH) ; MIC Acinetobacter baumannii 1104008 = > 64 µg/mL
